# Tgt: soluble human BACE1 catalytic domain (Homo sapiens (Human), UniProt P56817)
# Sequence (P56817 75-416): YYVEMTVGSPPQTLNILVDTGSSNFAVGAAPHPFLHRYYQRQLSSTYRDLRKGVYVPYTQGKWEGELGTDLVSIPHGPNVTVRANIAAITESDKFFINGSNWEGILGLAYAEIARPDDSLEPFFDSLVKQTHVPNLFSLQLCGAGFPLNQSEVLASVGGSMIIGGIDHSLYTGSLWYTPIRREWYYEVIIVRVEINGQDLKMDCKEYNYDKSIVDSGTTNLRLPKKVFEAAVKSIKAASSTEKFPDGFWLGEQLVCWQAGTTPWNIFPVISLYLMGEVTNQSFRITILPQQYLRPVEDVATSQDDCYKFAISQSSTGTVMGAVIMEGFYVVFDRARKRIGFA
# Protocol Text: BACE1 HTRF FRET Assay
# Settings: read-out: BACE1 Ki
Listed molecules paired with reported Ki
Give just the numeric value; nM need not be written.

Form: molecule = COc1cccn2cc(-c3cc(Cl)c([C@]4(C)CS(=O)(=O)C(C)(C)C(=N)N4)s3)nc12 [Example 28a] ; Ki = 804

Form: molecule = C[C@@]1(c2ccccn2)C(=N)N[C@](C)(c2sc(-c3cccc(C#N)c3)cc2F)CS1(=O)=O [Example 27bo-b] ; Ki = 2720

Form: molecule = C[C@@]1(c2ccc(F)cc2F)CS(=O)(=O)[C@@](C)(c2cccc(OCC3CC3)c2)C(=N)N1 [Example 34b] ; Ki = 1130

Form: molecule = C[C@]1(CC(F)(F)F)C(=N)N[C@](C)(c2sc(-c3nnc(-c4ccc(Cl)cc4)o3)cc2F)CS1(=O)=O [Example 27by-a] ; Ki = 29.5

----------
# Tgt: soluble human BACE1 catalytic domain (Homo sapiens (Human), UniProt P56817)
# Protocol Text: BACE1 HTRF FRET Assay
# Settings: read-out: BACE1 inhibition, Ki
Listed compounds paired with reported log10 Ki
Remember, log10 of Ki, in µM.

Compound	Tgt	Measure Name	Measured Number
C[C@]1(CC(F)(F)F)C(=N)N[C@](C)(c2sc(Br)cc2F)CS1(=O)=O [Example 6F-3a]	soluble human BACE1 catalytic domain (Homo sapiens (Human), UniProt P56817)	log10 Ki	-0.30
C[C@@]1(c2cc(N)ccc2F)CS(=O)(=O)[C@@](C)(C2CCOCC2)C(=N)N1 [Entry 50]	soluble human BACE1 catalytic domain (Homo sapiens (Human), UniProt P56817)	log10 Ki	-0.30

Form: compound = COCC1(COC)C(=N)N[C@](C)(c2sc(Br)cc2Cl)CS1(=O)=O [Entry 89] ; log10 Ki = 0.28

Form: compound = C[C@@]1(c2cc(F)ccc2F)CS(=O)(=O)[C@@](C)(c2cccc(OCc3ccccc3)c2)C(=N)N1 [Example 34d-a] ; log10 Ki = 0.46

Form: compound = C[C@@]1(c2cc(N)ccc2F)CS(=O)(=O)[C@@](C)(c2cccc(C(F)(F)F)c2)C(=N)N1 [Entry 68] ; log10 Ki = 0.15

----------
# Tgt: soluble human BACE1 catalytic domain (Homo sapiens (Human), UniProt P56817)
# Protocol Text: BACE1 HTRF FRET Assay
# Settings: read-out: BACE1 Ki
Measure Name: Ki (nM)
Give just the numeric value; nM need not be written.

// known answers, use as guide
Compound	Measured Number
CC1(C)C(=N)N[C@](C)(c2sc(-c3cccc(C#N)c3F)cc2Cl)CS1(=O)=O [Example 27z]	400
CC1(C)C(=N)N[C@](C)(c2nc3ccc(-c4cccnc4)cc3s2)CS1(=O)=O [Example 29a]	3380
CC1(C)C(=N)N[C@](C)(c2sc(-c3ccn4ncnc4c3)cc2Cl)CS1(=O)=O [Example 27n]	273
Cc1noc(-c2cccc(-c3cc(F)c([C@]4(C)CS(=O)(=O)C(C)(C)C(=N)N4)s3)c2)n1 [Example 27aw]	125

Form: compound = C[C@@]1(c2sc(-c3cccc(-c4nnco4)c3)cc2F)CS(=O)(=O)[C@](C)(CC(F)(F)F)C(=N)N1 [Example 27bk-b] ; Ki = 106

Form: compound = CC1(C)C(=N)N[C@](C)(c2nc3ccc(-c4ccc(F)cc4)cc3s2)CS1(=O)=O [Example 29b] ; Ki = 2330

Form: compound = CC1(C)C(=N)N[C@](C)(c2cc(-c3cncc(-c4ncco4)c3)cs2)CS1(=O)=O [Example 27ak] ; Ki = 128

Form: compound = COc1cccc(-c2cc(F)c([C@]3(C)CS(=O)(=O)[C@](C)(CC(F)(F)F)C(=N)N3)s2)c1 [Example 27bl-b] ; Ki = 7310

Form: compound = COCC1(COC)C(=N)N[C@](C)(c2sc(-c3cc4cccc(OC)c4[nH]3)cc2Cl)CS1(=O)=O [Example 27bv] ; Ki = 79

Form: compound = COc1cccc2cc(-c3cc(F)c([C@]4(C)CS(=O)(=O)C(C)(C)C(=N)N4)s3)[nH]c12 [Example 27an] ; Ki = 21

Form: compound = C[C@@]1(c2sc(-c3nnc(-c4ccc(Cl)cc4)o3)cc2F)CS(=O)(=O)[C@](C)(CC(F)(F)F)C(=N)N1 [Example 27by-b] ; Ki = 450

Form: compound = C[C@@]1(c2sc(-c3cccc(C#N)c3)cc2F)CS(=O)(=O)[C@@](C)(c2cccc(F)c2)C(=N)N1 [Example 27br-a] ; Ki = 58.5

Form: compound = C[C@@]1(c2sc(-c3nnc(-c4ccc(Cl)cc4)o3)cc2F)CS(=O)(=O)[C@@](C)(c2ccccn2)C(=N)N1 [Example 27bz-a] ; Ki = 51

Form: compound = C[C@@]1(c2ccccn2)C(=N)N[C@](C)(c2sc(-c3cccc(-c4nnco4)c3)cc2F)CS1(=O)=O [Example 27bp-b] ; Ki = 396

----------
# Tgt: soluble human BACE1 catalytic domain (Homo sapiens (Human), UniProt P56817)
# Protocol Text: BACE1 HTRF FRET Assay
# Settings: read-out: BACE1 Ki; Ki calculated from IC50 using the Cheng-Prusoff equation
Measure Name: Ki (nM)
Give just the numeric value; nM need not be written.

// known answers, use as guide
Compound	Tgt	Ki, nM
CC1(C)C(=N)N[C@](C)(c2cc(NC(=O)C(F)F)ccc2F)CS1(=O)=O [Example 9au]	soluble human BACE1 catalytic domain (Homo sapiens (Human), UniProt P56817)	195
CC1(C)C(=N)N[C@](C)(c2sc(-c3cncc(-c4ncco4)c3)cc2Cl)CS1(=O)=O [Example 27ad]	soluble human BACE1 catalytic domain (Homo sapiens (Human), UniProt P56817)	44.4

Consider the additional compound presented here.
Form: compound = CC(C)[C@]1(C)C(=N)N[C@](C)(c2cc(NC(=O)c3ccc(F)cn3)ccc2F)CS1(=O)=O [Example 9ea-b] ; Ki = 224

----------
# Tgt: purified human autoBACE-2 (Homo sapiens (Human), UniProt Q9Y5Z0)
# Sequence (Q9Y5Z0 63-473): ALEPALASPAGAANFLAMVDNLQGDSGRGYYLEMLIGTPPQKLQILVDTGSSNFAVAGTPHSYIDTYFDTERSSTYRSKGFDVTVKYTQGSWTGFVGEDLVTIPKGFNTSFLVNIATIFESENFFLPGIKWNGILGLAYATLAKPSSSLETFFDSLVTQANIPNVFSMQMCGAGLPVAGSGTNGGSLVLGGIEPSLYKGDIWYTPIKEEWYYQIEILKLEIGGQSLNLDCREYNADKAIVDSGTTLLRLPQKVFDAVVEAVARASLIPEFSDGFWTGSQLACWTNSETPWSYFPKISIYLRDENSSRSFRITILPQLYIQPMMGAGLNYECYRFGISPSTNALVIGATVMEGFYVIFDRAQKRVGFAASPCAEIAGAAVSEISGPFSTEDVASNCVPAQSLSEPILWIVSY
# Protocol Text: BACE-2 Assay (BACE-HTRF assay)
# Assay type: biochemical
pKi: −log10 of the molar value.
Measure Name: pKi

C[C@@]1(c2ccc(F)cc2)C(=N)N[C@](C)(c2cc(NC(=O)c3ccc(F)cn3)ccc2F)CS1(=O)=O 7.00 to 7.96

Consider the additional compound presented here.
Form: compound = "CC1(C)C(=N)N[C@](C)(c2cc(N)ccc2F)CS1(=O)=O" ; pKi = 5.00 to 6.30

----------
# Tgt: soluble human BACE1 catalytic domain (Homo sapiens (Human), UniProt P56817)
# Protocol Text: BACE1 HTRF FRET Assay
# Settings: read-out: BACE1 Ki; Ki calculated from IC50 using the Cheng-Prusoff equation
Measure Name: pKi
Please report pKi as the negative decimal logarithm of the molar concentration, giving only the number.

Compound	Measured Number
C[C@]1(CC2CCOCC2)C(=N)N[C@](C)(c2cc(NC(=O)c3ccc(Cl)cn3)ccc2F)CS1(=O)=O [Example 9cs-a]	8.80

Form: compound = CC1(C)C(=N)N[C@](C)(c2sc(C(=O)NCc3ccc(F)cc3)cc2Cl)CS1(=O)=O [Example 22j] ; pKi = 6.12

Form: compound = C[C@@]1(c2cc(NC(=O)c3ccc(Cl)cn3)ccc2F)CS(=O)(=O)[C@@](C)(c2ccccn2)C(=N)N1 [Example 9cw-a] ; pKi = 8.36

Form: compound = CC1(C)C(=N)N[C@](C)(c2cc(NC(=O)C3CCC3)ccc2F)CS1(=O)=O [Example 9aq] ; pKi = 6.32

----------
# Tgt: soluble human BACE1 catalytic domain (Homo sapiens (Human))
# Protocol Text: BACE1 HTRF FRET Assay
# Settings: read-out: BACE1 Ki; Ki calculated from IC50 using the Cheng-Prusoff equation
pKi: −log10 of the molar value.
Given measured pKi, output yes (1) if it is greater than or equal to 8 and no (0) if not.

# example entries with known answers
CC(=O)Nc1ccc(F)c([C@]2(C)CS(=O)(=O)C(C)(C)C(=N)N2)c1 no (0)
COc1ccc(C(=O)Nc2ccc(F)c([C@]3(C)CS(=O)(=O)[C@@](C)(C4CCOCC4)C(=N)N3)c2)nc1 yes (1)
CC1(C)C(=N)N[C@](C)(c2cc(NC(=O)c3ccc(C(F)(F)F)cn3)cc(F)c2F)CS1(=O)=O no (0)

hey, is pKi for this one >= 8? "COc1ccc(C(=O)Nc2ccc(F)c([C@]3(C)CS(=O)(=O)[C@@](C)(c4cccc(F)c4)C(=N)N3)c2)nc1"
yes (1)

hey, is pKi for this one >= 8? "COc1cnc(C(=O)Nc2ccc(F)c([C@]3(C)CS(=O)(=O)[C@@](C)(c4cccc(F)c4)C(=N)N3)c2)cn1"
yes (1)

hey, is pKi for this one >= 8? "Cc1nc(C(=O)Nc2ccc(F)c([C@]3(C)CS(=O)(=O)C(C)(C)C(=N)N3)c2)no1"
yes (1)

hey, is pKi for this one >= 8? "CC1(C)C(=N)N[C@](C)(c2cc(NC(=O)c3ccno3)ccc2F)CS1(=O)=O"
no (0)

hey, is pKi for this one >= 8? "C[C@@]1(c2cc(NC(=O)c3ccc(F)cn3)ccc2F)CS(=O)(=O)[C@@](C)(c2cccc(C(F)(F)F)c2)C(=N)N1"
yes (1)

hey, is pKi for this one >= 8? "Cc1nnc(C(=O)Nc2ccc(F)c([C@]3(C)CS(=O)(=O)C(C)(C)C(=N)N3)c2)o1"
no (0)

hey, is pKi for this one >= 8? "COc1cnc(C(=O)Nc2ccc(F)c([C@]3(C)CS(=O)(=O)[C@](C)(c4ccccn4)C(=N)N3)c2)cn1"
no (0)

hey, is pKi for this one >= 8? "C[C@@]1(c2cc(NC(=O)c3ccc(C(F)(F)F)cn3)ccc2F)CS(=O)(=O)[C@](C)(CC2CC2)C(=N)N1"
no (0)

hey, is pKi for this one >= 8? "C=CC[C@]1(C)C(=N)N[C@](C)(c2cc(NC(=O)c3cnc(OC)cn3)ccc2F)CS1(=O)=O"
no (0)

Data provenance is patent US9499502B2.
